subject-of-test: human 11b-hsd-1 (Homo sapiens, UniProt P28845)
Sequence (P28845 whole entry): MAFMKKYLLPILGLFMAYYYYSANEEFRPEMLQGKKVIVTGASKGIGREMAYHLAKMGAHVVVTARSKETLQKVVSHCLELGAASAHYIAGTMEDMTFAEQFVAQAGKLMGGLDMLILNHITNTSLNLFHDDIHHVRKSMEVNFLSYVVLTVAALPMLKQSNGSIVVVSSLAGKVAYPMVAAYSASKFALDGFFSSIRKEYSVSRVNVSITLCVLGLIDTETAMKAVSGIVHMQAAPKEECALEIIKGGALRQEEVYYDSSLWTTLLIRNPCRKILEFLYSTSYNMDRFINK
assay-overview: Inhibition constant Ki of human 11b-hsd-1 (3H-cortisone to 3H-cortisol conversion, HPLC)
Type: biochemical
condition-parameters: apparent Ki, human 11b-hsd-1; read-out: Ki app
The following molecules are listed with their measured Ki values.
Give just the number in nM; leave the unit off.

Examples with their reported Ki follow.
Reported Ki of CCCCN1CCC[C@@H]1C(=O)NC1CCCCC1 [Example 100] : 4

// recorded Ki for CCN1C[C@H](O)C[C@@H]1C(=O)NC1C2CC3CC(C2)CC1C3 (stereo partly shown) [Example 24] : 1.4

Form field Ki, entry CC(C)CN1CCC[C@@H]1C(=O)NCc1ccccc1 [Example 4] : 3.6

// field: Ki; key: CC(C)CN1CCOC[C@@H]1C(=O)NC1C2CC3CC(C2)CC1C3 (stereo partly shown) [Example 64] ; value = 1.3

Lab note: O=C(NC1C2CC3CC(C2)CC1C3)[C@H]1COCCN1CCO (stereo partly shown) [Example 66] gave Ki of 10

Continuing:
The molecule listed as O=C(NC12CC3CC(CC(C3)C1)C2)C1COCCN1CC1CCCCC1 (stereo not shown) [Example 181] has a reported Ki of 1.8

get_value(item= N#Cc1ccc(CN2CCOC[C@@H]2C(=O)NC2C3CC4CC(C3)CC2C4)cc1 (stereo partly shown) [Example 62] , readout=Ki) returns 1.1

Recorded Ki (molecule CN(C)CCCN1CCC[C@@H]1C(=O)NC1C2CC3CC(C2)CC1C3 (stereo partly shown) [Example 108] ): 9

Given item O=C(NC1CCCCC1)[C@H]1CCCN1CC1CCCO1 (stereo partly shown) [Example 97] , the value recorded as its Ki is 7

// Ki value for CCN1CCC[C@@H]1C(=O)NC12CC3CC(CC(C3)C1)C2 [Example 23] : 2.6

Reference source for all entries: patent US20050261290A1
